Values were extracted from patent US7172867B2.

Molecular target: TINUR (Nurr1) (Homo sapiens, UniProt P43354)
Construct: expressed in transfected cells; host or cells: NIH3T3
Sequence (P43354 whole entry): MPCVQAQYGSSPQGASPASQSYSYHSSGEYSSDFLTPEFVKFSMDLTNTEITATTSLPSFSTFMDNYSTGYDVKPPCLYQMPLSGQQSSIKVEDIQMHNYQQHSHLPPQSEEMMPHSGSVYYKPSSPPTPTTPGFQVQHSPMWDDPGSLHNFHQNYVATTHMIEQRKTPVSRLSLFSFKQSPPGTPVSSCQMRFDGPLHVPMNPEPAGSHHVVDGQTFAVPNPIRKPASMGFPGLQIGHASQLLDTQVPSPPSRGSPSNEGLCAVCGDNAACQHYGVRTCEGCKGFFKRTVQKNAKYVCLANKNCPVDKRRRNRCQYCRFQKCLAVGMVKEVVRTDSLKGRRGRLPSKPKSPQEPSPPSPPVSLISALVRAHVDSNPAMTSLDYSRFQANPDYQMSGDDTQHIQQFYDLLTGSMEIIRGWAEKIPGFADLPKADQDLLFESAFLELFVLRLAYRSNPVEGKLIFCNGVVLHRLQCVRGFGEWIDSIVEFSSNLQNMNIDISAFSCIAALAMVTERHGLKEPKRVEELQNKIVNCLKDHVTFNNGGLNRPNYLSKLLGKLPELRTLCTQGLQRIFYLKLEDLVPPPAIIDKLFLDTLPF
Experiment: Mammalian two hybrid luciferase reporter system for TINUR ligand search (GAL4-TINUR LBD or full length, NIH3T3 cells, with or without RXRα)
Assay type: cell-based
Conditions: full length TINUR fused to GAL4, RXRα added, NIH3T3 luciferase; ◯ with concentration, X
parameter-measured: Full length Nurr1-ligand activity RXR(+)

compound: CCCCC[C@@](C)(O)/C=C/[C@H]1C=CC(=O)[C@@H]1C/C=C\CCCC(=O)O [15(R)-15-methylProstaglandin A2]
study-system: TINUR (Nurr1) (Homo sapiens, UniProt P43354)
data-value: ◯10 μM
--
compound: O=C(O)CCC/C=C\C[C@H]1C(=O)C=C[C@@H]1/C=C/[C@@H](O)CCc1ccccc1
study-system: TINUR (Nurr1) (Homo sapiens, UniProt P43354)
data-value: ◯10 μM
--
compound: CCCCC[C@H](O)/C=C/[C@H]1C=CC(=O)[C@H]1CCCCCCC(=O)O
study-system: TINUR (Nurr1) (Homo sapiens, UniProt P43354)
data-value: ◯10 μM
--
compound: CCCCC[C@H](O)/C=C/[C@H]1C=CC(=O)[C@@H]1C/C=C\CCCC(=O)O
study-system: TINUR (Nurr1) (Homo sapiens, UniProt P43354)
data-value: ◯10 μM

Please report Full length Nurr1-ligand activity RXR(+) with TINUR (Nurr1) (Homo sapiens, UniProt P43354) for item CCCCC[C@H](O)/C=C/[C@H]1C=CC(=O)[C@@H]1CCCCCCC(=O)O .
◯10 μM
